# Measurement Notes: soluble on expression in E. coli; label from the status in PepcDB or PDB records

>  <Ordered Residues>
MGSDKIHHHHHHMKVIIVDDDKAMFLILKKMLSKIHNVEVIGTFDRLSTTMEFLENNEVDLAFLDIKISGDNGIDLAKQIVNLKKQINIVFISSHKEFALDSFDVFPLDYIVKPVSQEKLERAIDRASKVIIKSGEEEYKAFIYCFGGLEVRGRNNESVKWISTKSMELFSYLVINSGRSISRGRVIKDIFEEMELKDVESYLNTIVYQLRKALSPLGLKKIITFDSQGYSFDFKDVYVDYIDFISGVESIKEINKDNIDRAKQLVYLYKGDLFDDKEYIWAVGEKEYASNLYSKFLGKVCSWYLENDLINDAYSMGKKLIQYNELDSEVNKIFMNILAARRDKISLNKHYERYAKVLFRELGVKVEDSVEELYRKLIKVLR

>  <soluble on expression in E. coli>
not soluble

$$$$
>  <Ordered Residues>
MSLIIKNAKVVTHDMQLKEPWAIAGHVHDSIKNTFITLEDSEGNIGIGSCATQNDSEESVKECFDILESFSSSLVGKELGLNENTFGWIASELPLNTEANAAVDIAIHDLWAKREEKTLVDALGKKHQSFDTSITIGVASLEKTIEMAKKHIGNGFSILKIKIGDCVEEDIERMKALFELKPEKIKIRVDANRGYSKEELIKFYEKTLHLGLELIEQPMEVDQNNEMLYFPEEIRKICVADESLQNFDDAVRLLKEPKPFGVFNIKLMKCGGVFAAKKIASLAEENGIELMWGCFDESKISISAALHTALSCENTRYIDLDGFFDLGWDLIEGGYRCENGIMSAIERPGLGVFSEGHHHHHH

>  <soluble on expression in E. coli>
soluble

$$$$
>  <Ordered Residues>
MRILVLGVGNILLTDEAIGVRIVEALEQRYILPDYVEILDGGTAGMELLGDMANRDHLIIADAIVSKKNAPGTMMILRDEEVPALFTNKISPHQLGLADVLSALRFTGEFPKKLTLVGVIPESLEPHIGLTPTVEAMIEPALEQVLAALRESGVEAIPRSDS

>  <soluble on expression in E. coli>
soluble

$$$$
>  <Ordered Residues>
MGHHHHHHSHMKTLEAHKDPHKEVVRSAEEAASVLATSISPEQCIKVLCPIIQTADYPINLAAIKMQTKVIERVSKETLNLLLPEIMPGLIQGYDNSESSVRKACVFCLVAVHAVIGDELKPHLSQLTGSKMKLLNLYIKRAQTGSGGADPTTDVSGQS

>  <soluble on expression in E. coli>
not soluble

$$$$
>  <Ordered Residues>
MSYYHHHHHHDYDIPTTGNLYFQGAMVAISFRPTADLVDDIGPDVRSCDLQFRQFGGRSQFAGPISTVRCFQDNALLKSVLSQPSAGGVLVIDGAGSLHTALVGDVIAELARSTGWTGLIVHGAVRDAAALRGIDIGIKALGTNPRKSTKTGAGERDVEITLGGVTFVPGDIAYSDDDGIIVV

>  <soluble on expression in E. coli>
soluble

$$$$
>  <Ordered Residues>
MSLKDLQKYQGIIPAFYACYDDKGDICPERVKALTNYFIDKGVQGLYVNGSSGECIYQSVADRKLVLENVMSVAKGKLTVIAHVACNNTKDSVELAMHAEAIGVDAIAAIPPIYFRLPEYAIADYWNTISQAAPQTDFIIYNIPQLAGVALTSDLYRKMLQNPQVIGVKNSSMPVQDIQNFVAIGGENHIVFNGPDEQFLGGRLMGAAAGIGGTYGVMPELYLTLNQLIVDKDLEKARELQFTINDIITKLCSGHGNMYAVIKAVLEINEQLTIGSVRLPLASVTEEDKPIIKEAAEEGHHHHHH

>  <soluble on expression in E. coli>
soluble

$$$$
>  <Ordered Residues>
MSKVKIELFTSPMCPHCPAAKRVVEEVANEMPDAVEVEYINVMENPQKAMEYGIMAVPTIVINGDVEFIGAPTKEALVEAIKKRL

>  <soluble on expression in E. coli>
soluble

$$$$
>  <Ordered Residues>
KRKTKEQLAILKSFFLQCQWARREDYQKLEQITGLPRPEIIQWFGDTRYALKHGQLKWFRDNA

>  <soluble on expression in E. coli>
soluble

$$$$
>  <Ordered Residues>
MRLDYALFSQHLVNSREKAKALVLKNQVLVNKMVVSKPSFIVKENDKIELIAEKLFVSRAGEKLGAFLETHFVDFKGKVVLDVGASKGGFSQVALLKGAKRVLCVDVGKMQLDESLKQDKRIECYEECDIRGFKTPETIDLALCDVSFISLYYILEAILPLSDEFLTLFKPQFEVGRGIKRNKKGVVVDKEAILNALENFKNHLKTKDFQILKIQESLVKGKNGNVEFFIHFKRA

>  <soluble on expression in E. coli>
not soluble

$$$$
>  <Ordered Residues>
MTTSAMTAPDTRRQLQHVETLRRFLRGDSCFVHDLRGMMDYHDGLSRRQQRAFCRASRVLTDPEPIQSEAEGENKQFTEHTHKVVSFFIKSVFVFPYLVLPNCCQVSVDRSRVPETGGRWLLEHHHHHH

>  <soluble on expression in E. coli>
not soluble

$$$$
>  <Ordered Residues>
MGSDKIHHHHHHMVAIKNFSIKIKDKEPVFTLGEKLTQEQLDFFETHGYIHFKNFLNPETVPAVIKALEDVQEQWIAENREKVNGVPIKYGVDLDGKKIVQRFAFASLFSNVLHELLKDPRLKALYPLLQAKDERIGEFEKDGLVVNHYINSDASSFTKMGWHTDCLRDVFYGKKIMPMLNVGIHLDNYDPKNGGLRIIPGTHKQDLLNLLFRKKYYVSHKPDPDEIGFNITAGDLTVHDGRSWHRVERSPITGEASRRRVMYIPFIGGEYQPKDENSSTQLYQRLSKFVR

>  <soluble on expression in E. coli>
not soluble

$$$$
>  <Ordered Residues>
MDLHELTARLHAIRDRNDWRQFHSPKNLAMAASVEMAELVEIFQWLTEDQSRTLSAEQLEHAGQEVGDIVLYLLLFCGETGLDLEQVVRAKLADCERRFLP

>  <soluble on expression in E. coli>
soluble

$$$$
>  <Ordered Residues>
MLRSIICNMCNLSDESKQFEMTPPSSNLSSLFPTGRAVRNPFGKVYFVVILKGKAMVRIDGKSMLLLERTFLFLPPGHLLLRLSCTQDFLFQYLSFSFDFLSDFPLLLKADISNQVTNAPCLPMSPEDFSLIKMYYHFIYHRYLDAECPSEVIKGMLFSLVLEVCRMYSGRNISVEMSRQDKLVDGFFSLLHKYCTQERMAAFYASRLCISDKYLMRSIKKQTGQTFHYWMADFILREAKLMLRSTDLSVTEIADKLSFPNSSSFARFFRKYTGFSPVQFRNEA

>  <soluble on expression in E. coli>
not soluble

$$$$
>  <Ordered Residues>
GSHMVMNTHPYQSEAVSDVWSLSKTSMTFQPKKASLQPLTISLDELFSSRGEFISVGGNGRMSHKEAILLGLRYKKLYNQARVKYSL

>  <soluble on expression in E. coli>
soluble

$$$$
